# assay comment: RP, Waters ACQUITY UPLC BEH C8, 100 × 2.1 mm, 1.7 µm, 50 °C, 0.35 mL/min, estimated dead time 0.63 min; A: water + 0.1% formic acid; B: acetonitrile + 0.1% formic acid; gradient (min/%B) 0/5 1/5 24/100 28/100
# condition description: stereoisomer not certain
measured attribute: LC retention time (min)

compound	units of measure	LC retention time
CCCCCCCCC=CCCCCCCCC(N)=O	min	17.4
C1CCNC1	min	1.03
NC(Cc1ccccc1)C(=O)NC(Cc1ccccc1)C(=O)O (centres undefined)	min	5.35
CCCCCCCCCCCCCCCCCCCCCCCC(=O)OC(CC(=O)O)C[N+](C)(C)C (centres undefined)	min	19

A. Nc1ccccc1C(=O)CC(N)C(=O)O (centres undefined)
B. CSCCC(N)C(=O)O (centres undefined)
Pick one: A or B . Which one has the lower reported LC retention time? Answer with the label corresponding to your selection.
B
(B: 1.02 min, A: 1.53 min)

P. CC(=O)Nc1ccc(OC2OC(C(=O)O)C(O)C(O)C2O)cc1 (centres undefined)
Q. O=C(O)CCc1c[nH]c2ccccc12
Which record shows the lower LC retention time: the first, P , or the second, Q ? Write the label of whichever entry you select.
P

1. O=C(O)C=Cc1ccccc1
2. O=C(O)C1CCCCN1 (centres undefined)
Return label of the item with the larger LC retention time. Candidates: 1 , 2 . Bench note: the answer is the label of the chosen record.
1

a. CCCCCCCCC=CCCCCCC(=O)OC(CC(=O)O)C[N+](C)(C)C (centres undefined)
b. CCC=CCC=CCCC(=O)OC(CC(=O)O)C[N+](C)(C)C (centres undefined)
Look at a and b . Which one has the lower recorded LC retention time number? Refer to your chosen item by its label in the answer.
b

Data provenance is the RepoRT retention time repository (doi:10.1038/s41596-020-0341-5).
